Can you tell me Survival for the items I'm about to list?
# Tested on: Mycobacterium leprae
# assay: Anti-leprotic activity against Mycobacterium leprae infected in albino mouse assessed survival against infection at 400 mg/kg, sc administered 58 days post-infection and subsequent compound dosing at 200 mg/kg at 0.5, 1 or 2 months interval
# Format: functional

Known value: Mycobacterium leprae Survival of the compound Nc1ccc(S(=O)(=O)c2ccc(N)cc2)cc1 [DAPSONE] equals 2 weeks

Known value: Mycobacterium leprae Survival of the compound CC(=O)N(C)c1ccc(S(=O)(=O)c2ccc(N(C)C(C)=O)cc2)cc1 equals >8 weeks

Known value: Mycobacterium leprae Survival of the compound CC(=O)Nc1ccc(S(=O)(=O)c2ccc(NC(C)=O)cc2)cc1 [ACEDAPSONE] equals >8 weeks

Known value: Mycobacterium leprae Survival of the compound CC(=O)Nc1ccc(S(=O)(=O)c2ccc(N(C)C(C)=O)cc2)cc1 equals >8 weeks

Known value: Mycobacterium leprae Survival of the compound CC(=O)Nc1ccc(S(=O)(=O)c2ccc(NC(C)=O)c(C)c2)cc1 equals >8 weeks

Known value: Mycobacterium leprae Survival of the compound CC(=O)Nc1ccc(S(=O)(=O)c2ccc(/N=C/c3ccc(/C=N/c4ccc(S(=O)(=O)c5ccc(NC(C)=O)cc5)cc4)cc3)cc2)cc1 equals >8 weeks
